assayed-target: MAGE-A1 Dextramer (human)
method: MAGE-A1 Dextramer gradient staining (MFI) of cells expressing the TCR, flow cytometry
// assign Met if EC50 falls strictly below 0.1 nM, else Not met (ties count as Not met)

Record excerpt, results attached:
A1A2-M01-614 (TCR, V domains shown) Valpha: GEDVEQSLFLSVREGDSSVINCTYSDMLSTYLYWYKQEPGAGLQLLTYIFIFQAMKQDQRLTVLLNKKDKHLSLRIADTQTGDSAIYFCAGSGGGTDKLIFGTGTRLQVFP Vbeta: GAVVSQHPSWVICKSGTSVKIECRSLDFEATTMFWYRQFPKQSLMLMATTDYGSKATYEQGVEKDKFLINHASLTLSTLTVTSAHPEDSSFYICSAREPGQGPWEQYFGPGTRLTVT	Not met
A1A2-M01-623 (TCR, V domains shown) Valpha: GEDVEQSLFLSVREGDSSVINCTYTDSSQTYLYWYKQEPGAGLQLLTYIFIFQAMKQDQRLTVLLNKKDKHLSLRIADTQTGDSAIYFCAGSGGGTDKLIFGTGTRLQVFP Vbeta: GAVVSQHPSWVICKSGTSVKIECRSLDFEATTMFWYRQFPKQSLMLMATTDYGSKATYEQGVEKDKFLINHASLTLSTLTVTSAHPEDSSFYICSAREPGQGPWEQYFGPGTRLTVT	Not met
A1A2-M01-621 (TCR, V domains shown) Valpha: GEDVEQSLFLSVREGDSSVINCTYTDSEFTYLYWYKQEPGAGLQLLTYIFAFESMKQDQRLTVLLNKKDKHLSLRIADTQTGDSAIYFCAGSGGGTDKLIFGTGTRLQVFP Vbeta: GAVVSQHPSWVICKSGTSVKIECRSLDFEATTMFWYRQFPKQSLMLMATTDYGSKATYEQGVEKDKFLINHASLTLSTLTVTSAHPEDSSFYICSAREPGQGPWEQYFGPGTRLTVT	Not met

Hello, is EC50 of the following binder strictly smaller than 0.1 nM? A1A2-M01-622 (TCR, V domains shown) Valpha: GEDVEQSLFLSVREGDSSVINCTYTDSSSTYLYWYKQEPGAGLQLLTYIFAFESMKQDQRLTVLLNKKDKHLSLRIADTQTGDSAIYFCAGSGGGTDKLIFGTGTRLQVFP Vbeta: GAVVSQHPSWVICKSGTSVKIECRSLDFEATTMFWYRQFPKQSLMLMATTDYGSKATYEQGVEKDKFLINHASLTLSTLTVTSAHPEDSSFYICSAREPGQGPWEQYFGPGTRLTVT
Met

Now try A1A2-M01-624 (TCR, V domains shown) Valpha: GEDVEQSLFLSVREGDSSVINCTYQYGMSTYLYWYKQEPGAGLQLLTYIFSFMDMKQDQRLTVLLNKKDKHLSLRIADTQTGDSAIYFCAGSGGGTDKLIFGTGTRLQVFP Vbeta: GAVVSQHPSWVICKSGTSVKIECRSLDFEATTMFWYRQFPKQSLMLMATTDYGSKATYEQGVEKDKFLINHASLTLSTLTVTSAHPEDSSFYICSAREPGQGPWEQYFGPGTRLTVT .
Not met

Now try A1A2-M01-625 (TCR, V domains shown) Valpha: GEDVEQSLFLSVREGDSSVINCTYTDSSMTYLYWYKQEPGAGLQLLTYIFAFESMKQDQRLTVLLNKKDKHLSLRIADTQTGDSAIYFCAGSGGGTDKLIFGTGTRLQVFP Vbeta: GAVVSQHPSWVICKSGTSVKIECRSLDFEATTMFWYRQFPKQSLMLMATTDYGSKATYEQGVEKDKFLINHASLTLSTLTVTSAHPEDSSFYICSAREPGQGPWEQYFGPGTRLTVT .
Met

Now try A1A2-M01-612 (TCR, V domains shown) Valpha: GEDVEQSLFLSVREGDSSVINCTYVDPYSTYLYWYKQEPGAGLQLLTYIFSFMDMKQDQRLTVLLNKKDKHLSLRIADTQTGDSAIYFCAGSGGGTDKLIFGTGTRLQVFP Vbeta: GAVVSQHPSWVICKSGTSVKIECRSLDFEATTMFWYRQFPKQSLMLMATSNEGSKATYEQGVEKDKFLINHASLTLSTLTVTSAHPEDSSFYICSAREPWDPWYEQYFGPGTRLTVT .
Met

Now try A1A2-M01-613 (TCR, V domains shown) Valpha: GEDVEQSLFLSVREGDSSVINCTYTDSSLTYLYWYKQEPGAGLQLLTYIFSFMDMKQDQRLTVLLNKKDKHLSLRIADTQTGDSAIYFCAGSGGGTDKLIFGTGTRLQVFP Vbeta: GAVVSQHPSWVICKSGTSVKIECRSLDFQATTMFWYRQFPKQSLMLMATTDYGSKATYEQGVEKDKFLINHASLTLSTLTVTSAHPEDSSFYICSAREPGQGPWEQYFGPGTRLTVT .
Met

Now try A1A2-M01-616 (TCR, V domains shown) Valpha: GEDVEQSLFLSVREGDSSVINCTYTDSSQTYLYWYKQEPGAGLQLLTYIFAFMQMKQDQRLTVLLNKKDKHLSLRIADTQTGDSAIYFCAGSGGGTDKLIFGTGTRLQVFP Vbeta: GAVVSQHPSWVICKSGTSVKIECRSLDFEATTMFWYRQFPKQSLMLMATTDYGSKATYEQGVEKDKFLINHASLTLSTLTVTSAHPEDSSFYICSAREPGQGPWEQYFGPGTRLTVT .
Met

Now try A1A2-M01-620 (TCR, V domains shown) Valpha: GEDVEQSLFLSVREGDSSVINCTYTDSSQTYLYWYKQEPGAGLQLLTYIFSNMDMKQDQRLTVLLNKKDKHLSLRIADTQTGDSAIYFCAGSGGGTDKLIFGTGTRLQVFP Vbeta: GAVVSQHPSWVICKSGTSVKIECRSLDFEATTMFWYRQFPKQSLMLMATTDYGSKATYEQGVEKDKFLINHASLTLSTLTVTSAHPEDSSFYICSAREPGQAWSDQYFGPGTRLTVT .
Not met
